test system: Histone deacetylase (HDAC), HeLa cell nuclear extract; assay: In vitro fluorescent histone deacetylase assay (Biomol kit, HeLa cell nuclear extract); type: biochemical; conditions: compound at 100 μM; HeLa cell nuclear extract as HDAC source; substrate 50 μM; 10 min at room temperature
As shown below, each of these compounds has a reported % inhibition HDAC @ 100 μM value.
Numbers only; they are read as %.

>>> measuredvalue("O=C(NO)c1cnc(N2CCN(S(=O)(=O)c3ccc4nsnc4c3)CC2)s1")
98
>>> measuredvalue("O=C(NO)c1cnc(N2CCN(S(=O)(=O)c3ccc(F)c(F)c3)CC2)s1")
98
>>> measuredvalue("O=C(NO)c1cnc(N2CCN(S(=O)(=O)c3ccc(Oc4ccccc4)nc3)CC2)s1")
96
>>> measuredvalue("O=C(NO)c1cnc(N2CCN(S(=O)(=O)c3ccc(-c4ccncc4)cc3)CC2)s1")
98
>>> measuredvalue("O=C(NO)c1cnc(N2CCN(S(=O)(=O)c3ccccc3)CC2)s1")
98
>>> measuredvalue("O=C(NO)c1cnc(N2CCN(S(=O)(=O)c3ccc(-c4cccc(CN5CCCC5)c4)s3)CC2)s1")
99

Task: Tell me the measured % inhibition HDAC @ 100 μM of `Cl.O=C(NO)c1cnc(N2CCN(S(=O)(=O)c3ccc(-c4cccc(CN5CCCC5)c4)cc3)CC2)s1` , please.
Output: 100

Task: Tell me the measured % inhibition HDAC @ 100 μM of `Cc1cc(C)cc(S(=O)(=O)N2CCN(c3ncc(C(=O)NO)s3)CC2)c1` , please.
Output: 100
